study-system: T1, P3-AA
T1 chain: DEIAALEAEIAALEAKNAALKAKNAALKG
experiment-summary: two-hybrid library CCmax;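 also: natural log of median RNA to DNA barcode read ratio; higher means stronger binding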
test-settings: mean of both orientations
reported-metric: interaction score

The following binders have reported results that may help.
| binder | reported-metric | numeric-value |
| --- | --- | --- |
| DENAALEAEIAALEAEIAALEAKNAALKG [P11-AA] | interaction score | -1.5 |
| DKLAAAKAEIAALEAELAANEAKKAALKG [AP8-AA] | interaction score | -1.35 |
| DELAAIEAEIAALEAKKAALKAKNAALKG [AP3-AA] | interaction score | -1.84 |
| DEIAALEAKNAALKAELAAIEAKIAAKKG [AP5-AA] | interaction score | -1.62 |
| DELAAEEAKNAALKAKLAAAKAEIAALEG [AP7-AA] | interaction score | -1.88 |
| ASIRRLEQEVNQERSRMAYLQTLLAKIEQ [4H_BCR] | interaction score | -2.12 |
| DKLAAIKAKLAANKAKKAALKAKAAALKG [AP2-AA] | interaction score | -1.95 |
| DKIAALKAKNAALKAKNAALKAKIAALKG [P2-AA] | interaction score | -1.6 |
| DELAANEAELAAEEAKLAAAKAKAAALKG [AP4-AA] | interaction score | -1.14 |
| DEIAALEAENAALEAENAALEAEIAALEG [P1-AA] | interaction score | -0.804 |

I: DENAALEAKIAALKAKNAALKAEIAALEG [4H1401-AA]
II: DEEAALEAKAAALKAELAANEAKLAAAKG [AP6-AA]
III: DKNAALKAKIAALKAKIAALKAENAALEG [P12-AA]
IV: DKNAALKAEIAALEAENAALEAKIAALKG [4H3606-AA]
V: DKNAALKAENAALEAKIAALKAKIAALKG [P10-AA]
Prompt: Please rank these binders by interaction score in descending order. Respond with an ordered listing of the labels, as requested.
Completion: III, V, IV, I, II
(III: 1.42, V: -0.118, IV: -0.421, I: -1.1, II: -1.95)
